System: HIV-1 (H9/IIIB strain)
Assay: Multiple round HIV-1 infection assay (Viking assay), HIV-1 replication in MT4-GFP cells
Type: cell-based
Conditions: Human immunodeficiency virus 1, IIIB, MT4-GFP cells infected with HIV-1 H9/IIIB, 10% normal human serum; read-out: Viking, IC50 (10% NHS)
Method: The antiviral activity of the tenofovir prodrugs of the Examples herein was assessed in an assay that measures the rate of replication of HIV in cell culture, termed the Viking assay (VIral KINetics in Green cells) and performed as follows. […] Infected cells were quantified at two time points, ˜48 h and ˜72 h post-infection, by counting the number of green cells in each well using an Acumen eX3 scanner. […] R0 is calculated for each well, and IC50s determined by non-linear 4-parameter curve fitting.
observable: IC50 (nM)
Field format: number, assumed nM, no unit text.

# annotated cases, reported IC50 shown
CCCCCOC(=O)[C@@H](C)N(C)P(=O)(CO[C@H](C)Cn1cnc2c(N)ncnc21)NC(C)(C)C(=O)OCCCCC (single isomer, unassigned) [Example 25B]; 3.6
CCCCCCOC(=O)[C@@H](C)NP(=O)(CO[C@H](C)Cn1cnc2c(N)ncnc21)NC(C)(C)C(=O)OCCCCCC (single isomer, unassigned) [Example 13A]; 7.2

With those in mind, consider the next compound.
Query block: I am curious: what IC50 value has been reported for CCCCCOC(=O)[C@H]1CCCN1P(=O)(CO[C@H](C)Cn1cnc2c(N)ncnc21)NC(C)(C)C(=O)OCCCCC (single isomer, unassigned) [Example 26A] ?
Result block: 5.3

---

experiment: Prodrug stability assay in bio-relevant media (FaSSIF with Pancreatin), GI Tract stability; format: in vitro ADME; details: HPLC peak area of prodrug at 5 h divided by area at 0 h; 0.5 mg/mL Pancreatin in FaSSIF, 37° C.
observable: GI Tract stability (%)
Field format: number, assumed %, no unit text.

CCCCCOC(=O)C(C)(C)NP(=O)(CO[C@H](C)Cn1cnc2c(N)ncnc21)N[C@H](C)C(=O)OCCCC (single isomer, unassigned) [Example 9A]; 100
CCCCCOC(=O)C(C)(C)NP(=O)(CO[C@H](C)Cn1cnc2c(N)ncnc21)N[C@H](C)C(=O)OC(C)C (single isomer, unassigned) [Example 17A]; 100
CCCCCOC(=O)[C@@H](C)NP(=O)(CO[C@H](C)Cn1cnc2c(N)ncnc21)NC(C)(C)C(=O)OCCCCC (single isomer, unassigned) [Example 16B]; 97.8
CCCCCOC(=O)C(C)(C)NP(=O)(CO[C@H](C)Cn1cnc2c(N)ncnc21)N[C@H](C)C(=O)OC1CCCC1 (single isomer, unassigned) [Example 24B]; 82.7
CC(C)OC(=O)C(C)(C)NP(=O)(CO[C@H](C)Cn1cnc2c(N)ncnc21)N[C@H](C)C(=O)OC1CCCC1 (single isomer, unassigned); 95.9
CCCCCCOC(=O)[C@@H](C)NP(=O)(CO[C@H](C)Cn1cnc2c(N)ncnc21)NC(C)(C)C(=O)OCCCCCC (single isomer, unassigned) [Example 13A]; 99.1
C[C@H](Cn1cnc2c(N)ncnc21)OCP(=O)(N[C@H](C)C(=O)OC1CCCC1)NC(C)(C)C(=O)OC1CCCCC1 (single isomer, unassigned) [Example 27B]; 93.5
CCCCOC(=O)[C@@H](C)NP(=O)(CO[C@H](C)Cn1cnc2c(N)ncnc21)NC(C)(C)C(=O)OC(C)C (single isomer, unassigned); 95.6

Query block: I am curious: what GI Tract stability value has been reported for CCCCOC(=O)C(C)(C)NP(=O)(CO[C@H](C)Cn1cnc2c(N)ncnc21)N[C@H](C)C(=O)OC1CCC1 (single isomer, unassigned) [Example 23B] ?
Result block: 58.6

Query block: I am curious: what GI Tract stability value has been reported for CCCCCOC(=O)[C@@H](C)N(C)P(=O)(CO[C@H](C)Cn1cnc2c(N)ncnc21)NC(C)(C)C(=O)OCCCCC (single isomer, unassigned) [Example 25B] ?
Result block: 94.4

Query block: I am curious: what GI Tract stability value has been reported for CCCCCOC(=O)[C@H]1CCCN1P(=O)(CO[C@H](C)Cn1cnc2c(N)ncnc21)NC(C)(C)C(=O)OCCCCC (single isomer, unassigned) [Example 26B] ?
Result block: 92.5
